Test: clinical
Conditions: human, in vivo, 40 mg, AUC∞
Measured endpoint: AUC(0-inf) (ng·h/mL)
Give just the numeric value; ng·h/mL need not be written.

Query: Return AUC(0-inf) (reported value) for this molecule: C[C@]1(c2nc3c(C(N)=O)cccc3[nH]2)CCCN1
Response: 1840

----------
Assay: clinical
Conditions: human, in vivo, 40 mg, T max
Measured endpoint: Tmax (h)
Give just the numeric value; h need not be written.

Query: Return Tmax (reported value) for this molecule: C[C@]1(c2nc3c(C(N)=O)cccc3[nH]2)CCCN1 [Veliparib]
Response: 2.5

----------
Assay: clinical
Settings: human, in vivo, 40 mg, AUC0–8
Measured endpoint: AUC(0-t)

Query: Return AUC(0-t) (reported value) for this molecule: C[C@]1(c2nc3c(C(N)=O)cccc3[nH]2)CCCN1 [Veliparib]
Response: 1290 ng·h/mL
